Taken from patent US20260008852A1.

Assay system: T1, His-tagged mouse B7-H3 (mouse, UniProt Q8VE98 29-244, limits assumed)
T1 construct: Bought His-tagged protein coated on the ELISA plate; also called mu B7-H3; murine B7-H3
T1 sequence (looked up): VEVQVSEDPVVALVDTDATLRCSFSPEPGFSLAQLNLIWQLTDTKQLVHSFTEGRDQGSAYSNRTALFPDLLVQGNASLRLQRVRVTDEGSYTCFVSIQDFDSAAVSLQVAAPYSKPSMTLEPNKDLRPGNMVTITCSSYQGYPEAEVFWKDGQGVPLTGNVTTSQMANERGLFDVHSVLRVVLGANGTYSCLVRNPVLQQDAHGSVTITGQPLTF
Test details: ELISA, coated His-tagged antigen, scFv-Fc 1 ug/ml
Value kind: ELISA OD450 @ 1 ug/ml (OD450)
Express the result in OD450 but write the number alone.

Using the record for 40511p1.1.H5 (scFv, V domains shown, Tested as scFv-Fc (Expi293 supernatant)) VH: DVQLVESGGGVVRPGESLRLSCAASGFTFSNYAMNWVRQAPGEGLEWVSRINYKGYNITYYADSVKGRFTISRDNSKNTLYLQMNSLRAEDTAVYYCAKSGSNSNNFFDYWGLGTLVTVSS VL: EIVLTQSPGTLSLSPGERATLSCRASQSIRSDLAWYQQKPGQAPRLLIYGAASRATGIPARFSGSGSGTEFTLTISSLQSGDFAVYYCQQYNSWPPLTFGGGTKVEIK , report its ELISA OD450 @ 1 ug/ml.
0.758

Request the reported ELISA OD450 @ 1 ug/ml associated with 40633p1.2.G9 (scFv, V domains shown, Tested as scFv-Fc (Expi293 supernatant)) VH: EVQLLESGGGLLQPGGSLRLSCAASGFSFSSYGMHWVRQAPGKGLEWVAAINSDGSRIYYADSVEGRFTISRDNSKNTLYLQMNSLRAEDTAVYYCTKYYYHYAMDVWGQGTTVTVSS VL: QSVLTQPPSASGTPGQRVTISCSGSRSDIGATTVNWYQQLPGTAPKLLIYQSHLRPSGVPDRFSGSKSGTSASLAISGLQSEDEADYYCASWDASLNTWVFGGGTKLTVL
1.85

Can you look up the measured ELISA OD450 @ 1 ug/ml of 40511p1.1.D6 (scFv, V domains shown, Tested as scFv-Fc (Expi293 supernatant)) VH: DVQLVESGGGVVRPGESLTLSCAASGFTINSYAVSWVRQAPGEGLEWVSGISGSGVRYYADSVKGRFTISRDNSNNTLYLQMNSLRAEDTAVYYCARSNKVTWNNFFDYWGLGTLVTVSS VL: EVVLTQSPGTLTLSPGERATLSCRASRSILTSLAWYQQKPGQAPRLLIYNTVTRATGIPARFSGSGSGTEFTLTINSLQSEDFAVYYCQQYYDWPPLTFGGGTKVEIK for me?
1.61
